Test system: S. cerevisiae Mot1-301 ts growth rescue, BacTiter-Glo ATP luminescence
Test: restored Mot1-301 yeast growth at 38.5C – whole organism, S. cerevisiae, Mot1-301 ts mutant, luminescence, dose retest, SUMOylation pathway inhibitor project, confirmation (AID 463204);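 note: growth at restrictive 38.5 degrees C of Mot1-301 OY566 strain; actives raise luminescence by restoring growth of the ts mutant at high temperature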
Calls of active or inactive are those of the source.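 Rule for the calls: active = AC50 no more than ten times the top concentration tested, that is within one log above it; inconclusive = flat curve fit with activity between 30% and 70%, or invalid poor fit; inactive = AC50 beyond ten times the top tested dose.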
Here the recorded AC50 is given for each entry.

Use the examples below as a reference point.
OC[C@@H](O)CCl : > 42 µM (inactive)
Cc1ccc(/C=C/C(=O)OCC(=O)N(CC(C)C)c2c(N)n(Cc3ccccc3)c(=O)[nH]c2=O)o1 : > 21 µM (inactive)
Cc1ccc(NC(=O)CCS(=O)(=O)c2ccc3nc(C)sc3c2)cc1 : > 42 µM (inactive)
Cn1c(-c2sc3cc(C(F)(F)F)cnc3c2-c2cccs2)n[nH]c1=S : > 42 µM (inactive)
CC(C)(C)NC(=O)NC(=O)CN1CCN(S(=O)(=O)c2ccc3c(c2)OCCO3)CC1 : > 21 µM (inactive)

Q) What value of measured AC50 is listed for N#C/C(=C\c1c(N(Cc2ccccc2)Cc2ccccc2)nc2ccccn2c1=O)C(N)=O ?
A) > 42 µM (inactive)

Q) Same thing, different molecule: COc1cc(OC)cc(OC(=O)c2ccc3c(=O)n4c(nc3c2)CCC4)c1
A) > 42 µM (inactive)

Q) Please do the same for Cc1ccc(-n2c(-c3ccco3)nc3c(cnn3-c3ccc(C)cc3)c2=O)cc1 as well.
A) > 42 µM (inactive)

Q) Next: O=C(COC(=O)[C@@H]1CC(O)CN1S(=O)(=O)c1ccccc1[N+](=O)[O-])Nc1ccc2ccccc2c1 (stereo not given in full)
A) > 42 µM (inactive)

Q) What about CCN(CC)CCNc1ncnc2c1[nH]c1ccc(OC)cc12 ?
A) > 42 µM (inactive)

###

System: S. cerevisiae Mot1-301 ts growth rescue, BacTiter-Glo ATP luminescence
Assay: restored Mot1-301 yeast growth at 38.5C – whole organism, S. cerevisiae, Mot1-301 ts mutant, luminescence, dose retest, SUMOylation pathway inhibitor project, confirmation (AID 463204);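 note: growth at restrictive 38.5 degrees C of Mot1-301 OY566 strain; actives raise luminescence by restoring growth of the ts mutant at high temperature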
Calls of active or inactive are those of the source.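 How the source made its calls: active means AC50 no more than ten times the top concentration tested, that is within one log above it; inconclusive means flat curve fit with activity between 30% and 70%, or invalid poor fit; inactive means AC50 beyond ten times the top tested dose.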
In this exercise, the only acceptable responses are yes for active, no for inactive

A selection of reference data follows.
CC(=O)NCc1c(Cl)cccc1-n1cccc1 : no
N#C/C(=N\Nc1cccc(F)c1)C(=N)N1CCCCCC1 : no
Cc1ccc(-c2noc(C3CCCN(S(=O)(=O)c4ccc5ccccc5c4)C3)n2)o1 (stereo unspecified) : no
Cc1ccc(N=c2ssnc2Cl)cc1 : yes
COc1ccc(NC(=O)CN(C)C(=O)c2cc(C)on2)cc1 : no
Cc1ccc(N(CC(=O)Nc2cccc(C)c2)S(=O)(=O)c2cccc3nonc23)cc1 : no

Q) # outcome recorded in this test, key = O=C(COc1ccc(-n2cnnn2)cc1)NCCc1ccc(F)cc1
A) no

Q) # iterate: Cc1c(Cl)cccc1NC(=O)Cn1c(CCC(=O)O)ccc1-c1ccccc1
A) no

Q) Next up: CCOCCCNC(=O)C(c1ccc(OC)cc1)N(Cc1cccs1)C(=O)c1ccccn1 (stereo unspecified)
A) no

Q) Next record, please: COc1ccc(NC(=O)Cn2c(=O)cnc3ccccc32)cc1S(=O)(=O)N1CCCCC1
A) no

Q) Next compound: CC1CC(c2ccccc2)NS(=O)(=O)O1 (stereo unspecified)
A) no

Q) // query: O=c1c2ccccc2nc(SCc2ccc([N+](=O)[O-])cc2)n1CCCO
A) no

Q) Again, but for C[C@]12CC[C@H]3C(=CCc4cc(O)ccc43)[C@@H]1CCC2=O
A) no

Q) Another compound to check: Cc1ccc(SC[C@H](C)CN2CC[C@H](C)CCC2=O)cc1
A) no

Q) Subsequent entry: O=CNCCCc1nc2ccccc2n1CCc1ccccc1
A) no

Q) Same question, O=C(Cn1cnc2ccccc2c1=O)c1ccc(OC(F)F)cc1 this time
A) no

Q) Now give it for COc1cccc(C(=O)N2CCN(S(=O)(=O)Cc3ccccc3)CC2)c1OC too.
A) no

Q) Input c1ccc2cc(Cn3ccnc3)ccc2c1
A) no

Q) Here is the next compound: O=C(O)CCc1ccc(-c2cccs2)n1NC(=O)c1cccs1
A) no

Q) What about this compound? Cc1n[nH]c(C)c1S(=O)(=O)N(CC(=O)NC1CCCC1)c1ccc(C(C)C)cc1
A) no

Q) How about this compound: CCOC(=O)CNC(=O)c1c(C)nn(C)c1Cl
A) no

Q) Same read-out for Cc1ccccc1-c1nnc(SCc2ccc(F)cc2)o1 ?
A) no

Q) Let us now turn to CC(=O)Oc1cccc(N2C(=O)c3ccc(C(=O)Nc4c[nH]c(=O)[nH]c4=O)cc3C2=O)c1
A) no

Q) And then O=C(O)c1ccc(N=C2NC(=O)C(CO)(CO)S2)cc1 , what is it?
A) no

Q) Repeat with COc1cc2c(cc1OC)CN(C(=O)Cc1c(F)cccc1Cl)CC2
A) no

Hey, just so you know, these numbers are from PubChem BioAssay AID463204.
